- Test system: SARS-CoV S pseudotyped virus on 293T-ACE2 cells
- Format: cell-based
- TEST SETTINGS: read-out: HIV-luc (SARS-CoV S) IC50
QUANTITY NAME: pIC50
By convention, pIC50 is the negative base-10 log of a molar concentration.

Consider the worked cases shown below.
COMPOUND STRUCTURE STRING	VALUE
COCCN1CCN(C(=O)N[C@@H](Cc2ccccc2)C(=O)N[C@H](/C=C/S(=O)(=O)c2ccccc2)CCc2ccccc2)CC1	10.15
O=C(N[C@H](/C=C/S(=O)(=O)c1ccccc1)CCc1ccccc1)[C@H](Cc1ccccc1)NC(=O)N1CCN(CC2CC2)CC1	9.80
CCCN1CCN(C(=O)N[C@@H](Cc2ccccc2)C(=O)N[C@H](/C=C/S(=O)(=O)c2ccccc2)CCc2ccccc2)CC1	9.62

Form field - read-out: pIC50; system: SARS-CoV S pseudotyped virus on 293T-ACE2 cells; submitted item: "O=C(N[C@H](/C=C/S(=O)(=O)c1ccccc1)CCc1ccccc1)[C@H](Cc1ccccc1)NC(=O)N1CCN(c2ccccc2)CC1"
8.60

Form field - read-out: pIC50; system: SARS-CoV S pseudotyped virus on 293T-ACE2 cells; submitted item: "CCN1CCN(C(=O)N[C@@H](Cc2ccccc2)C(=O)N[C@H](/C=C/S(=O)(=O)c2ccccc2)CCc2ccccc2)CC1"
10.40

Form field - read-out: pIC50; system: SARS-CoV S pseudotyped virus on 293T-ACE2 cells; submitted item: "O=C(N[C@H](/C=C/S(=O)(=O)c1ccccc1)CCc1ccccc1)[C@H](Cc1ccccc1)NC(=O)N1CCN(C2CCCC2)CC1"
9.60

Form field - read-out: pIC50; system: SARS-CoV S pseudotyped virus on 293T-ACE2 cells; submitted item: "CC(C)N1CCN(C(=O)N[C@@H](Cc2ccccc2)C(=O)N[C@H](/C=C/S(=O)(=O)c2ccccc2)CCc2ccccc2)CC1"
9.96
